This collection of values is drawn from ChEMBL document CHEMBL5356993.

- Test system: SNB-19
- measurement.notes: Antiproliferative activity against human SNB-19 cells assessed as cell growth inhibition at 10 uM incubated for 48 hrs by SRB assay relative to control
- Format: functional
- assay.setup: read-out: GI
Exercise: for every item that follows, state its recorded inhibition of growth at 10 µM.

> print(dat)
                              sample.smiles  reported.measurement
1  Cc1nc2c(cnn2-c2ccccc2)c(=O)n1-c1ccc(N2C(=O)c3ccccc3C2=O)cc1                 < 15%
2  Cc1nc2c(cnn2-c2ccccc2)c(=O)n1-c1ccc(N2C(=O)C=CC2=O)cc1                 < 15%

Req: Fill in inhibition of growth at 10 µM for record Cc1nc2c(cnn2-c2ccccc2)c(=O)n1-c1ccc(N)cc1
Resp: < 15%

* * *

So I've got a bunch of compounds here, and I need their inhibition of growth at 10 µM values.
- Test system: Hs-578T
- measurement.notes: Antiproliferative activity against human Hs-578T cells assessed as cell growth inhibition at 10 uM incubated for 48 hrs by SRB assay relative to control
- Format: functional
- assay.setup: read-out: GI

> print(dat)
                              sample.smiles  experimental.target  reported.measurement
1  Cc1nc2c(cnn2-c2ccccc2)c(=O)n1-c1ccc(NC(=O)c2ccco2)cc1              Hs-578T                 < 15%
2  COc1ccc(/C=C/C(=O)c2ccc(-n3c(C)nc4c(cnn4-c4ccccc4)c3=O)cc2)cc1              Hs-578T                 < 15%
3  Cc1nc2c(cnn2-c2ccccc2)c(=O)n1-c1ccc(N2C(=O)c3ccccc3C2=O)cc1              Hs-578T                 < 15%
4  CC(=O)Nc1ccc(-n2c(C)nc3c(cnn3-c3ccccc3)c2=O)cc1              Hs-578T                 < 15%

Please examine the following record next.
Req: Read off the recorded inhibition of growth at 10 µM for Cc1nc2c(cnn2-c2ccccc2)c(=O)n1-c1ccc(N2C(=O)C=CC2=O)cc1
Resp: < 15%

* * *

For each entry below, report its inhibition of growth at 10 µM value.
- Test system: UACC-257
- measurement.notes: Antiproliferative activity against human UACC-257 cells assessed as cell growth inhibition at 10 uM incubated for 48 hrs by SRB assay relative to control
- Type: functional
- assay.setup: read-out: GI

> print(dat)
                              sample.smiles  reported.measurement
1  Cc1nc2c(cnn2-c2ccccc2)c(=O)n1-c1ccc(N2C(=O)c3ccccc3C2=O)cc1                 < 15%
2  Cc1nc2c(cnn2-c2ccccc2)c(=O)n1-c1ccc(NC(=O)c2ccco2)cc1                 < 15%

Alright, here's another compound for you.
Req: Give a short answer stating reported inhibition of growth at 10 µM for Cc1nc2c(cnn2-c2ccccc2)c(=O)n1-c1ccc(N2C(=O)C=CC2=O)cc1 .
Resp: < 15%

* * *

- System: SNB-19
- measurement.notes: Antiproliferative activity against human SNB-19 cells assessed as cell growth inhibition at 10 uM incubated for 48 hrs by SRB assay relative to control
- Format: functional
- assay.setup: read-out: GI
endpoint.label: inhibition of growth at 10 µM

Reference set, count: 3
> print(dat)
                              sample.smiles  experimental.target                 endpoint.label  reported.measurement
1  Cc1nc2c(cnn2-c2ccccc2)c(=O)n1-c1ccc(NC(=O)c2ccco2)cc1               SNB-19  inhibition of growth at 10 µM                 < 15%
2  Cc1ccc(C(=O)Nc2ccc(-n3c(C)nc4c(cnn4-c4ccccc4)c3=O)cc2)cc1               SNB-19  inhibition of growth at 10 µM                 17.9%
3  Cc1nc2c(cnn2-c2ccccc2)c(=O)n1-c1ccc(NC(=O)c2ccc(Cl)cc2)cc1               SNB-19  inhibition of growth at 10 µM                 16.3%

Req: Indicate its recorded inhibition of growth at 10 µM; the molecule in question is Cc1nc2c(cnn2-c2ccccc2)c(=O)n1-c1ccc(NC(=O)c2ccccc2)cc1
Resp: 23.6%
